// provenance: PubChem BioAssay AID1963869

# Test system: KRAS patient-derived spheroids with HUVEC/MSC, viability
# protocol_summary: Anticancer human tumor 323965-272-R-J2-PDC patient-derived pancreatic carcinoma cell line growth inhibition [KRAS2]
# study_conditions: second compound 3.16 µM; first compound 0.00316 µM; active compounds read low
measured_metric: viability, T/C (%)
Hi! Could you send only the number? It should be in %, unit omitted.

>  <molecule>
Cn1ncnc1[C@H]1c2n[nH]c(=O)c3cc(F)cc(c23)N[C@@H]1c1ccc(F)cc1 + C=CC(=O)N1CCN(c2nc(=O)n(-c3c(C)ccnc3C(C)C)c3nc(-c4c(O)cccc4F)c(F)cc23)C(C)C1

>  <display_unit>
%

>  <viability, T/C>
63.5

$$$$
>  <molecule>
CCN1CCN(Cc2ccc(Nc3ncc(F)c(-c4cc(F)c5nc(C)n(C(C)C)c5c4)n3)nc2)CC1 + C=CC(=O)N1CCN(c2nc(=O)n(-c3c(C)ccnc3C(C)C)c3nc(-c4c(O)cccc4F)c(F)cc23)C(C)C1

>  <display_unit>
%

>  <viability, T/C>
56.6

$$$$
>  <molecule>
CC(=O)Nc1cccc(-n2c(=O)n(C3CC3)c(=O)c3c(Nc4ccc(I)cc4F)n(C)c(=O)c(C)c32)c1 + COc1cc2nc(C)nc(NC(C)c3cc(N)cc(C(F)(F)F)c3)c2cc1OC1CCOC1

>  <display_unit>
%

>  <viability, T/C>
36.3

$$$$

Prompt: Could you share which viability, T/C value was measured for CC(=O)Nc1cccc(-n2c(=O)n(C3CC3)c(=O)c3c(Nc4ccc(I)cc4F)n(C)c(=O)c(C)c32)c1 + C=CC(=O)N1CCN(c2nc(=O)n(-c3c(C)ccnc3C(C)C)c3nc(-c4c(O)cccc4F)c(F)cc23)C(C)C1 ?
Completion: 42.1

Prompt: What about this molecule? CC(=O)Nc1cccc(-n2c(=O)n(C3CC3)c(=O)c3c(Nc4ccc(I)cc4F)n(C)c(=O)c(C)c32)c1 + CC1OCC2(CCN(c3cnc(Sc4ccnc(N)c4Cl)c(N)n3)CC2)C1N
Completion: 17.4

###

# Test system: KRAS patient-derived spheroids with HUVEC/MSC, viability
# protocol_summary: Anticancer human tumor 323965-272-R-J2-PDC cell line growth inhibition [KRAS2];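 also: spheroids exposed to agents for 7 days; 100% = DMSO vehicle control viability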
# study_conditions: second compound 0.316 µM; first compound 1 µM; active compounds read low
measured_metric: viability, T/C (%)
Hi! Could you send only the number? It should be in %, unit omitted.

Sample records with viability, T/C:
>  <compound>
CC1COCCN1c1cc(-c2ccnn2C)c2ccnc(-c3ccn[nH]3)c2n1 (stereo not given) + C=CC(=O)N1CCN(c2nc(=O)n(-c3c(C)ccnc3C(C)C)c3nc(-c4c(O)cccc4F)c(F)cc23)C(C)C1

>  <display_unit>
%

>  <viability, T/C>
16.1

$$$$
>  <compound>
CC1COCCN1c1cc(-c2ccnn2C)c2ccnc(-c3ccn[nH]3)c2n1 (stereo not given) + COc1cc2nc(C)nc(NC(C)c3cc(N)cc(C(F)(F)F)c3)c2cc1OC1CCOC1

>  <display_unit>
%

>  <viability, T/C>
11.6

$$$$
>  <compound>
CCN1CCN(Cc2ccc(Nc3ncc(F)c(-c4cc(F)c5nc(C)n(C(C)C)c5c4)n3)nc2)CC1 + CNCc1ccccc1-c1csc(C(C)Nc2nc(C)nc3cc(OC)c(OC)cc23)c1

>  <display_unit>
%

>  <viability, T/C>
56

$$$$
>  <compound>
CC(=O)OC12COC1CC(O)C1(C)C(=O)C(O)C3=C(C)C(OC(=O)C(O)C(NC(=O)OC(C)(C)C)c4ccccc4)CC(O)(C(OC(=O)c4ccccc4)C21)C3(C)C (stereo not given) + COc1cc2nc(C)nc(NC(C)c3cc(N)cc(C(F)(F)F)c3)c2cc1OC1CCOC1

>  <display_unit>
%

>  <viability, T/C>
24.5

$$$$

Prompt: Value wanted: viability, T/C (KRAS patient-derived spheroids with HUVEC/MSC, viability) of entry CCNC(=O)CC1N=C(c2ccc(Cl)cc2)c2cc(OC)ccc2-n2c(C)nnc21 (stereo not given) + COc1cc2nc(C)nc(NC(C)c3cc(N)cc(C(F)(F)F)c3)c2cc1OC1CCOC1
Completion: 32.5

###

# Tested on: KRAS patient-derived spheroids with HUVEC/MSC, viability
# protocol_summary: Anticancer human tumor 323965-272-R-J2-PDC cell line growth inhibition [KRAS2];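 also: spheroids exposed to agents for 7 days; 100% = DMSO vehicle control viability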
# study_conditions: second compound 1 µM; first compound 3.16 µM; active compounds read low
Lab note: anything with viability, T/C below 20% is marked MET; values at 20% or higher are marked NOT MET.

>  <compound>
CCNC(=O)CC1N=C(c2ccc(Cl)cc2)c2cc(OC)ccc2-n2c(C)nnc21 (stereo not given) + CC1OCC2(CCN(c3cnc(Sc4ccnc(N)c4Cl)c(N)n3)CC2)C1N

>  <category>
MET

$$$$

Prompt: Dear colleague, could you confirm whether viability, T/C of CC(C)NCC(C(=O)N1CCN(c2ncnc3c2C(C)CC3O)CC1)c1ccc(Cl)cc1 (stereo not given) + C=CC(=O)N1CCN(c2nc(OCC3CCCN3C)nc3c2CCN(c2cccc4cccc(C)c24)C3)CC1CC#N falls below 20%? Thanks.
Completion: NOT MET

Prompt: What about this compound? COc1cc2nccc(Oc3ccc(NC(=O)C4(C(=O)Nc5ccc(F)cc5)CC4)cc3)c2cc1OC + CNCc1ccccc1-c1csc(C(C)Nc2nc(C)nc3cc(OC)c(OC)cc23)c1
Completion: NOT MET

Prompt: What about this compound? CC(=O)OC12COC1CC(O)C1(C)C(=O)C(O)C3=C(C)C(OC(=O)C(O)C(NC(=O)OC(C)(C)C)c4ccccc4)CC(O)(C(OC(=O)c4ccccc4)C21)C3(C)C (stereo not given) + C=CC(=O)N1CCN(c2nc(OCC3CCCN3C)nc3c2CCN(c2cccc4cccc(C)c24)C3)CC1CC#N
Completion: MET

Prompt: What about this compound? COc1cc(Nc2ncc3c(n2)-c2ccc(Cl)cc2C(c2c(F)cccc2OC)=NC3)ccc1C(=O)O + C=CC(=O)N1CCN(c2nc(OCC3CCCN3C)nc3c2CCN(c2cccc4cccc(C)c24)C3)CC1CC#N
Completion: NOT MET

###

# Test system: KRAS patient-derived spheroids with HUVEC/MSC, viability
# protocol_summary: Anticancer human tumor 323965-272-R-J2-PDC cell line growth inhibition [KRAS2];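 also: spheroids exposed to agents for 7 days; 100% = DMSO vehicle control viability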
# study_conditions: second compound 1 µM; first compound 1 µM; active compounds read low
measured_metric: viability, T/C

Sample records with viability, T/C:
>  <compound>
CCN1CCN(Cc2ccc(Nc3ncc(F)c(-c4cc(F)c5nc(C)n(C(C)C)c5c4)n3)nc2)CC1 + COc1cc2nc(C)nc(NC(C)c3cc(N)cc(C(F)(F)F)c3)c2cc1OC1CCOC1

>  <assay_system>
KRAS patient-derived spheroids with HUVEC/MSC, viability

>  <result>
48.3%

$$$$
>  <compound>
COc1cc(Nc2ncc3c(n2)-c2ccc(Cl)cc2C(c2c(F)cccc2OC)=NC3)ccc1C(=O)O + COc1cc2nc(C)nc(NC(C)c3cc(N)cc(C(F)(F)F)c3)c2cc1OC1CCOC1

>  <assay_system>
KRAS patient-derived spheroids with HUVEC/MSC, viability

>  <result>
38.8%

$$$$
>  <compound>
COc1cc2nccc(Oc3ccc(NC(=O)C4(C(=O)Nc5ccc(F)cc5)CC4)cc3)c2cc1OC + C=CC(=O)N1CCN(c2nc(OCC3CCCN3C)nc3c2CCN(c2cccc4cccc(C)c24)C3)CC1CC#N

>  <assay_system>
KRAS patient-derived spheroids with HUVEC/MSC, viability

>  <result>
69.9%

$$$$
>  <compound>
CC1COCCN1c1cc(-c2ccnn2C)c2ccnc(-c3ccn[nH]3)c2n1 (stereo not given) + C=CC(=O)N1CCN(c2nc(=O)n(-c3c(C)ccnc3C(C)C)c3nc(-c4c(O)cccc4F)c(F)cc23)C(C)C1

>  <assay_system>
KRAS patient-derived spheroids with HUVEC/MSC, viability

>  <result>
14.1%

$$$$

Prompt: Could you share which viability, T/C value was measured for CC(=O)OC12COC1CC(O)C1(C)C(=O)C(O)C3=C(C)C(OC(=O)C(O)C(NC(=O)OC(C)(C)C)c4ccccc4)CC(O)(C(OC(=O)c4ccccc4)C21)C3(C)C (stereo not given) + COc1cc2nc(C)nc(NC(C)c3cc(N)cc(C(F)(F)F)c3)c2cc1OC1CCOC1 ?
Completion: 30.4%

###

Entries annotated with measured viability, T/C
# System: KRAS patient-derived spheroids with HUVEC/MSC, viability
# protocol_summary: Anticancer human tumor 323965-272-R-J2-PDC cell line growth inhibition [KRAS2];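 also: spheroids exposed to agents for 7 days; 100% = DMSO vehicle control viability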
# study_conditions: second compound 1 µM; first compound 3.16 µM; active compounds read low
# Text: Multicellular complex tumor spheroid response to RAS pathway inhibitors in combination with a targeted agents in patient-derived cell lines with oncogenic KRAS variants from multiple cancer types A high-throughput screen of multi-cell type tumor spheroids was designed to identify active combinations of targeted small molecules and KRAS pathway inhibitors. […] Compounds. […] If the clinical Cmax for an agent had not been determined, the highest concentration tested was 10 microM. […]
Hi! Could you send only the number? It should be in %, unit omitted.

>  <compound>
O=C(c1cc(Cc2n[nH]c(=O)c3ccccc23)ccc1F)N1CCN(C(=O)C2CC2)CC1 + CNCc1ccccc1-c1csc(C(C)Nc2nc(C)nc3cc(OC)c(OC)cc23)c1

>  <viability, T/C / %>
83.3

$$$$

Prompt: Could you share which viability, T/C value was measured for COc1cc2nccc(Oc3ccc(NC(=O)C4(C(=O)Nc5ccc(F)cc5)CC4)cc3)c2cc1OC + C=CC(=O)N1CCN(c2nc(OCC3CCCN3C)nc3c2CCN(c2cccc4cccc(C)c24)C3)CC1CC#N ?
Completion: 66.5

Prompt: What about this compound? COc1cc(Nc2ncc3c(n2)-c2ccc(Cl)cc2C(c2c(F)cccc2OC)=NC3)ccc1C(=O)O + COc1cc2nc(C)nc(NC(C)c3cc(N)cc(C(F)(F)F)c3)c2cc1OC1CCOC1
Completion: 44.9

Prompt: What about this compound? CC1COCCN1c1cc(-c2ccnn2C)c2ccnc(-c3ccn[nH]3)c2n1 (centres undefined) + CNCc1ccccc1-c1csc(C(C)Nc2nc(C)nc3cc(OC)c(OC)cc23)c1
Completion: 16.1
